// compounds with reported pIC50 on Ubiquitin carboxyl-terminal hydrolase 7 (Homo sapiens, UniProt Q93009), multi-publication
pIC50: −log10 of the molar value.

A selection of reference data follows.
C[C@H]1CNC[C@H](C)N1Cc1c(Cl)cc(Cl)cc1-c1ccnc2cc(CN3C(=O)CCN(C)C3=O)sc12 = > 8.00
CC(NCc1cc2nccc(-c3cc(Cl)cc4c3O[C@@H](c3onc5c3CNCC5)C4)c2s1)C(F)(F)F (some centres unmarked) = > 6.00
CC(C)CN1CC[C@H](N2CCCc3cc(Cl)cc(-c4ccnc5cc(CN6C(=O)CCC6=O)sc45)c32)C1 = 7.00 to 8.00
CN1CC(N2CCCc3cc(Cl)cc(-c4ccnc5cc(CN6C(=O)CCC6=O)sc45)c32)C1 = 7.00 to 8.00
O=C1c2ccccc2-c2nc3nn(Cc4ccccc4)nc3nc21 = < 4.00
Clc1cc2c(c(-c3ncnc4c3CCC4)c1)O[C@@H](c1onc3c1CNCC3)C2 = 4.52 to 5.00
Cc1ccc(F)c(-c2n[nH]c3c2CN(C#N)C3)c1 = > 5.00

Now for the compound whose pIC50 we want.
stdin: // map N#CN1Cc2[nH]nc(-c3ccc(OCc4ccccc4)cc3)c2C1 to recorded pIC50 (system: Ubiquitin carboxyl-terminal hydrolase 7 (Homo sapiens, UniProt Q93009))
stdout: > 5.00
